Hello, the source for this data is paper PMC11091976, in case you need it.

- Measured target: Z-HP15
- Assay explanation: Multicycle kinetic SPR, immobilized Z-HP15
- Format: binding
- Test context: MCK SPR, primary probe HP15, 25 °C
Measure: pKd
For clarity, pKd is expressed as the negative log10 of concentration in mol/L.

Measured pKd of DOTA-AEEA-SS-aacaccagg-EEY-NH2 [HP16, 9-mer secondary PNA probe with DOTA] : 9.49
